# Tested system: Kappa-type opioid receptor (Homo sapiens)
# Sequence (P41145 whole entry): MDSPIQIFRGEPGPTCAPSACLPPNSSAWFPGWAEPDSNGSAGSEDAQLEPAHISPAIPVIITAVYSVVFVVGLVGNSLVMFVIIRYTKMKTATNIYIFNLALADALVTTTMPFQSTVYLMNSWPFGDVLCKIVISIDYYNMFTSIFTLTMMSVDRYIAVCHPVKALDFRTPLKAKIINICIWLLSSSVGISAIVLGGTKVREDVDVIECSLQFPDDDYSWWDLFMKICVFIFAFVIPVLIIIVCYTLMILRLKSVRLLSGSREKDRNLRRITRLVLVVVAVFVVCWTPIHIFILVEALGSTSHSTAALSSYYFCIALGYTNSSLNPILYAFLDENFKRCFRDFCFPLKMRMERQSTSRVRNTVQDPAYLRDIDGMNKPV
pKi: −log10 of the molar value.
Please note: yes applies when pKi is 6 or greater, and no applies otherwise.

Here's what some known entries look like.
Qu. Test whether the compound CS(=O)(=O)N1CCC(c2ccccc2)(c2nccn2Cc2ccccc2)CC1 records pKi of 6 or higher.
Ans. no

Qu. In plain terms: is recorded pKi at least 6 for O=C(Nc1ccccc1)N1CCC(c2ccccc2)(c2nccn2Cc2ccc(F)cc2)CC1 ?
Ans. no

Qu. Hello, I need to know if O=C(Nc1ccccc1)N1CCC(c2ccccc2)(c2nccn2Cc2cccc(F)c2)CC1 has measured pKi not below 6. Thanks!
Ans. no

***
Qu. Could you verify whether the entry O=C(Nc1ccccc1)N1CCC(c2ccccc2)(c2nccn2Cc2ccccn2)CC1 shows pKi of no less than 6?
Ans. yes

Qu. API: above_or_equal(metric=pKi, cutoff=6) for item O=C(Nc1ccccc1F)N1CCC(c2ccccc2)(c2nccn2Cc2ccccc2)CC1
Ans. yes

Qu. In plain terms: is recorded pKi at least 6 for CCNC(=O)N1CCC(c2ccccc2)(c2nccn2Cc2ccccc2)CC1 ?
Ans. yes

Qu. Quick check: does O=C(Nc1ccccc1)N1CCC(c2ccccc2)(c2ncc[nH]2)CC1 have pKi greater than or equal to 6?
Ans. no

Qu. Is pKi at least 6? Consider O=C(Nc1cccc(F)c1)N1CCC(c2ccccc2)(c2nccn2Cc2ccccc2)CC1
Ans. no

Qu. Please indicate if the recorded pKi for NC(=O)N1CCC(c2ccccc2)(c2nccn2Cc2ccccc2)CC1 meets or exceeds 6.
Ans. yes

Qu. Entry c1ccc(Cn2ccnc2C2(c3ccccc3)CCN(c3ncccn3)CC2)cc1 : is its pKi no less than 6?
Ans. yes

Qu. Confirm if pKi reported for the compound O=C(Nc1ccccc1)N1CCC(c2ccccc2)(c2nccn2Cc2ccccc2F)CC1 is 6 or above.
Ans. yes

* * *

# Tested system: Delta-type opioid receptor (Homo sapiens, UniProt P41143)
# Sequence (P41143 whole entry): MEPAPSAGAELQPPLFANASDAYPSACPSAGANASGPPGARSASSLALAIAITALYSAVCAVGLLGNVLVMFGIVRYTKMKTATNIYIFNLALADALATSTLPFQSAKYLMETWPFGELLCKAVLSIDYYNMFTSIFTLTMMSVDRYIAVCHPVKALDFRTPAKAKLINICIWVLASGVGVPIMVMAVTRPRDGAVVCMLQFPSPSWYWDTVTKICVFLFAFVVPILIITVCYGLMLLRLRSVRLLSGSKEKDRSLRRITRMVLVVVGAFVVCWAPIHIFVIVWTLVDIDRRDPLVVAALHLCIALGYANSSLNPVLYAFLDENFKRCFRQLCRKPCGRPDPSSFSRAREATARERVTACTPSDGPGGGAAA
# Protocol details: Displacement of [3H]DPDPE from cloned human delta opioid receptor
Parameter measured: Ki (nM)
// units = nM; emit number, no label

Lab note: measured Ki of c1ccc(Cn2ccnc2C2(c3ccccc3)CCN(c3nc4ccccc4s3)CC2)cc1 was 73

The molecule identified as NC(=O)N1CCC(c2ccccc2)(c2nccn2Cc2ccccc2)CC1 registered its Ki at 99

molecule O=C(Nc1ccccc1)N1CCC(c2ccccc2)(c2nccn2Cc2ccccn2)CC1 , Ki observed: 3070

Memo: NS(=O)(=O)N1CCC(c2ccccc2)(c2nccn2Cc2ccccc2)CC1 , reported Ki: 106

molecule O=C(Nc1ccc(F)cc1)N1CCC(c2ccccc2)(c2nccn2Cc2ccccc2)CC1 , Ki observed: 97

Per the records, this molecule ( CN1CCN(C(=O)N2CCC(c3ccccc3)(c3nccn3Cc3ccccc3)CC2)CC1 ) has Ki equal to 161

Memo: COc1cccc(Cn2ccnc2C2(c3ccccc3)CCN(C(=O)Nc3ccccc3)CC2)c1 , reported Ki: 217

Looking up O=C(Nc1ccccc1)N1CCC(c2ccccc2)(c2nccn2Cc2ccc(F)cc2)CC1 , I found its Ki recorded as 203

Further cases:
Ki recorded for this molecule, O=S(=O)(Nc1ccccc1)N1CCC(c2ccccc2)(c2nccn2Cc2ccccc2)CC1 , is 3.2

Value of measured Ki for the entry c1ccc(Cn2ccnc2C2(c3ccccc3)CCN(c3nccs3)CC2)cc1 : 79

Reported Ki for O=C(Nc1ccccc1)N1CCC(c2ccccc2)(c2nccn2Cc2cccc(F)c2)CC1 was 128

Kindly note the recorded Ki for COc1ccc(NC(=O)N2CCC(c3ccccc3)(c3nccn3Cc3ccccc3)CC2)cc1 , which is 44
